Target: UniProtKB Q12809
Sequence (Q12809 whole entry): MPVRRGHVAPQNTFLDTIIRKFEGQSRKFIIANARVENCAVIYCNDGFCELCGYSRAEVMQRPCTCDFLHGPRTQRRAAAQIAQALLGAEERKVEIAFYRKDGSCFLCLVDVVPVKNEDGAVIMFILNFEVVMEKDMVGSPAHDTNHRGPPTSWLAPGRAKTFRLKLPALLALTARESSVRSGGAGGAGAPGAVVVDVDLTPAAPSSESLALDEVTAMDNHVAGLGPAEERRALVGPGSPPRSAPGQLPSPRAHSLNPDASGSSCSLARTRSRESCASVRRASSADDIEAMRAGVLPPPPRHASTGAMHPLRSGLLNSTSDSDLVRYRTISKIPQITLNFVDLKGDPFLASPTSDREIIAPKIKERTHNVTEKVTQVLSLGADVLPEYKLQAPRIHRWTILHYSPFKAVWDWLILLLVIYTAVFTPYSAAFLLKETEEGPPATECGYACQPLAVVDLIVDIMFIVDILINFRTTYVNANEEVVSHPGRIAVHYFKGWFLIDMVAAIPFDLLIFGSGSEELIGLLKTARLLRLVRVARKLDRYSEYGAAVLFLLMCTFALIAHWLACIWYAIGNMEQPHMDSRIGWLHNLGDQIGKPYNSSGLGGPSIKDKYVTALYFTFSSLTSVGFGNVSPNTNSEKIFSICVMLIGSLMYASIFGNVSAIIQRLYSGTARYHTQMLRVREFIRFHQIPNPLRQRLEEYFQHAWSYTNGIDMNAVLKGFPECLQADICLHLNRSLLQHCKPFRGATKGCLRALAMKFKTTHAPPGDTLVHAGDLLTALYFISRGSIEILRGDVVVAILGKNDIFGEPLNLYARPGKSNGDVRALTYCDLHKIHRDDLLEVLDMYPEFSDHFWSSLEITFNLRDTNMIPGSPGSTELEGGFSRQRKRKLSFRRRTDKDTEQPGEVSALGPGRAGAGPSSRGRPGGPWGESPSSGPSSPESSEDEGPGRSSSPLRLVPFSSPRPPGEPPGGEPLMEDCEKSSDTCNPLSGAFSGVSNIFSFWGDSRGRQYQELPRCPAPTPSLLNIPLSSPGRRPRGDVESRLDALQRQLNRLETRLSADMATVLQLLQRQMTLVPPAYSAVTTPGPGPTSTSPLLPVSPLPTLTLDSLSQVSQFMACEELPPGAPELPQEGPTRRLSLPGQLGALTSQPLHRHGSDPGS
pIC50: −log10 of the molar value. Residues, ends and D or L forms follow the SMILES beside them. *: point of attachment. Cbz = O=C(OCc1ccccc1)*; OtBu = CC(C)(C)O*
measure.name: pIC50

Write down the reported pIC50 of COC(=O)[C@@H](NC(=O)[C@H](CCC(=O)OC(C)(C)C)NC(=O)[C@H](CC(C)C)NC(=O)[C@@H]1CCCN1C(=O)OCc1ccccc1)C(C)C [PW164] (Cbz-PLE(OtBu)V-OMe) , test system: UniProtKB Q12809. < 4.52
